B1: HDV Ribozyme (parent)
chain: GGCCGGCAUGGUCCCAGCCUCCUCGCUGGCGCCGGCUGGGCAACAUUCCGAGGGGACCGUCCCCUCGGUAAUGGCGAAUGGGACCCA

variants of: B1; assay: self-cleavage, relative activity (ratio to wild type); higher = more cleavage; co-transcriptional
Listed here: items and their measured self-cleavage.
Lab note: record just the number, no unit beside it.

>>> observed("G28U G39C")
0.125
>>> observed("C36G C84A")
0.0773
>>> observed("U37G C62U")
0.308

Please look at the following variant next.
Any idea what its self-cleavage is? The variant is A78G G80A
0.242
